Data provenance is ChEMBL document CHEMBL3988442.

- Tested on: Trypanosoma cruzi
- protocol.notes: Trypanosoma cruzi phosphomannomutase and mannose-1-phosphate guanylyltransferase assay
- Type: functional
- Design: scale not given: direction of the effect not stated beside the values
- condition: 10 µM
result.type: Percent Effect (%)
Just the number in %, nothing appended.

Task item: State its Percent Effect for this compound: Cc1noc(C2CCN(C(=O)CCc3nccs3)CC2)n1
Reply: -1.78

Task item: State its Percent Effect for this compound: NC(=O)N1CCC2(CC1)CN(Cc1cccnc1)C(=O)CO2
Reply: -0.188

Task item: State its Percent Effect for this compound: CC(C)NC(=O)CC1COC2(CCN(Cc3cccs3)CC2)C1 (centres undefined)
Reply: -3.19

Task item: State its Percent Effect for this compound: CCc1sc(-c2nnc(CNCCn3cc(C)cn3)o2)cc1C
Reply: -6.34

Task item: State its Percent Effect for this compound: CC(C)c1cc(N2CCC(N)CC2)n2nccc2n1
Reply: 11

Task item: State its Percent Effect for this compound: Cc1cnn(CC2CN(CC(=O)N(C)c3nccs3)CCO2)c1 (centres undefined)
Reply: 0.201

Task item: State its Percent Effect for this compound: Cc1c(CN2CCCC(c3[nH]ncc3S(C)(=O)=O)C2)cnn1C (centres undefined)
Reply: 3.94

Task item: State its Percent Effect for this compound: CCn1ccnc1CN1CCN(CC(O)c2ccccc2)CC1 (centres undefined)
Reply: -4.79

Task item: State its Percent Effect for this compound: Cc1noc(C(C)C)c1C(=O)NCCN1CCCCCC1=O
Reply: 1.68

Task item: State its Percent Effect for this compound: COc1ccc(CNCc2ccnc(N3CCCCC3)c2)cc1OC
Reply: 4.22

Task item: State its Percent Effect for this compound: COc1cccc(CN2CCCC3(CCN(C(=O)[C@H]4CCCO4)C3)C2)c1 (some centres undefined)
Reply: -0.75

Task item: State its Percent Effect for this compound: CN(Cc1ccco1)[C@@H]1CN(Cc2ccc(F)cc2)C[C@@H]2CCCO[C@@H]21
Reply: -5.16

Task item: State its Percent Effect for this compound: CCS(=O)(=O)N(C)CC(=O)Nc1ccc(Br)cn1
Reply: -0.402

Task item: State its Percent Effect for this compound: CNc1snc(C)c1C(=O)N1CCCC(n2nc(C)cc2C)C1 (centres undefined)
Reply: 6.02

Task item: State its Percent Effect for this compound: COCCc1noc(CN2CCCCC2Cn2nc(C)cc2C)n1 (centres undefined)
Reply: -1.68

Task item: State its Percent Effect for this compound: CS(=O)(=O)NCC1CCCN(C(=O)COCc2ccccc2)C1 (centres undefined)
Reply: 4.41

Task item: State its Percent Effect for this compound: CC(C)c1noc(CCC(=O)NCC2CCS(=O)(=O)C2)n1 (centres undefined)
Reply: 2.81

Task item: State its Percent Effect for this compound: CC(C)C(NC(=O)N1CCN(c2ccc(Cl)cc2)CC1)C(=O)NC1CC1 (centres undefined)
Reply: 2.23

Task item: State its Percent Effect for this compound: Cn1cnc2c1CCN(Cc1cccc(C(N)=O)c1)C2
Reply: 0.657

Task item: State its Percent Effect for this compound: Cc1cncc(C2CCCN(C(=O)c3c[nH]c(=O)[nH]c3=O)C2)n1 (centres undefined)
Reply: -4.14

Task item: State its Percent Effect for this compound: Cc1cnn(CC2CCCN2C(=O)c2cccnc2N(C)C)c1 (centres undefined)
Reply: 1.42

Task item: State its Percent Effect for this compound: CCc1nc(C2CCCN2C(=O)c2c[nH]c(C)n2)no1 (centres undefined)
Reply: 3.41

Task item: State its Percent Effect for this compound: COCCc1noc(CNC2CCSC2)n1 (centres undefined)
Reply: 7.66

Task item: State its Percent Effect for this compound: O=C(O)c1csc(S(=O)(=O)Nc2cccc(OC(F)F)c2)c1
Reply: -1.03
